# Tested on: A498 renal
# protocol: NCI-60 one-dose screen, 48 h (100 = growth as untreated, 0 = no growth, -100 = all killed)
# stated-conditions: 10 µM
Compounds without any hit were thinned out: in the full panel of roughly 83,000, 20% have a hit.
value-kind: growth (%)
Your answer should be a plain number; it is taken to be in %.

compound | growth, %
COc1cc(/C=C/[N+](=O)[O-])cc(OC)c1OC | 47.1
O=S(=O)(F)c1ccc(Cl)cc1 | 122
COC12C(COC(N)=O)C3=C(C(=O)C(C)=C(N)C3=O)N1CC1C2N1C (centres undefined) | 46.9
O=C(CCl)Nc1ccc(Cl)cc1 | 113
CC(=O)Nc1c2sscc-2n(C)c1=O | -100

Give the value of growth reported for the following: O=C(O)c1cc(Cc2ccc(O)c(C(=O)O)c2)ccc1O (tested in a mixture with another compound) 84.7

Give the value of growth reported for the following: [O-][n+]1ccccc1S 78.7

Give the value of growth reported for the following: Oc1c(Cl)cc(Cl)c2ccccc12.[Cu+2] 106

Give the value of growth reported for the following: COC1CC2C=C(C)/C=C/C=C/C(=O)NC(c3ccccc3)C/C=C/CCC(O)CC(=O)C2=C1O (centres undefined) -87.7

Give the value of growth reported for the following: CC(C)c1cc([N+](=O)[O-])cc([N+](=O)[O-])c1O 108

Give the value of growth reported for the following: NNc1ccccc1 97.5

Give the value of growth reported for the following: CC(=O)[O][Hg][c]1c(C)c(C)cc(C)c1C 101

Give the value of growth reported for the following: O=C(CBr)Nc1ccc(Cl)cc1 104

Give the value of growth reported for the following: O=[N+]([O-])/C=C\c1ccc2c(c1)OCO2 96.5

Give the value of growth reported for the following: CC/C(=C/c1ccc(OC)cc1OC)[N+](=O)[O-] 76.8

Give the value of growth reported for the following: O=C1C=Cc2ccccc2C1=O 91.3

Give the value of growth reported for the following: COc1cc([C@@H]2c3cc4c(c(O)c3C[C@H]3COC(=O)[C@@H]32)OCO4)cc(OC)c1OC -29.1

Give the value of growth reported for the following: C#CC1(O)CCC(C(C)(C)C)CC1 (centres undefined) 99.5

Give the value of growth reported for the following: O=[N+]([O-])/C=C/c1ccc(Cl)cc1[N+](=O)[O-] 106
